Biological target: CDC2L6/CycC (CDK19) (Homo sapiens, UniProt Q9BWU1)
Construct: purchased Carna Biosciences Inc
Sequence (Q9BWU1 whole entry): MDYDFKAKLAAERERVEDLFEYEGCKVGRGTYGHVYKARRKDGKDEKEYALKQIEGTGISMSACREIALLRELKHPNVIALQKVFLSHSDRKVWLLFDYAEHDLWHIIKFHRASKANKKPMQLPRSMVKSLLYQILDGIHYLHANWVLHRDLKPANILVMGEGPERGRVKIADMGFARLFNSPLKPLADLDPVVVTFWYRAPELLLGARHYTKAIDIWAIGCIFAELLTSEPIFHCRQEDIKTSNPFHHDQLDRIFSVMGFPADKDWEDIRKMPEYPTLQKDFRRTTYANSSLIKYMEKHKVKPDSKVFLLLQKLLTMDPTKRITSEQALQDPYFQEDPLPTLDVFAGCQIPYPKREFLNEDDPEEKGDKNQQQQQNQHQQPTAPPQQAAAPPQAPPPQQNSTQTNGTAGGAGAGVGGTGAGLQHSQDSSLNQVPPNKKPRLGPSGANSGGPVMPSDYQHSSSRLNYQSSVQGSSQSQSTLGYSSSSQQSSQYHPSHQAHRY
Sequence (P24863 whole entry partner): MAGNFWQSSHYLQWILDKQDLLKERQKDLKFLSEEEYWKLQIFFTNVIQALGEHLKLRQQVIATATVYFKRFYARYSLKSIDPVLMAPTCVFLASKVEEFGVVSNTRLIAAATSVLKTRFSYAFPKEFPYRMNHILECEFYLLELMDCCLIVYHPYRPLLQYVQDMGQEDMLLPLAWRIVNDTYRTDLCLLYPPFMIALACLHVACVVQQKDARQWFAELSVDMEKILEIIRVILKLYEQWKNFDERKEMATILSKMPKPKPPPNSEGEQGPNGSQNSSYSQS
Test: CDK19 inhibitory activity (Kinase Tracer-236 / Eu-anti-GST fluorescence assay)
Type: binding
Design: concentration or dose not given beside the values
Settings: test compound concentration given as '1 1.1.1\4' [sic]
Property Label: Percent inhibition of CDK19 activity (%)
Output should be the measured figure followed by the unit it is expressed in.

# annotated cases, reported Percent inhibition of CDK19 activity (%) shown
CNC(=O)c1ccc(Oc2sc(C(N)=O)c3c2-c2sncc2CC3)c(C)n1; 102%
Cc1nc(NC(=O)C2(O)CC2)ccc1Oc1sc(C(N)=O)c2c1-c1sncc1CC2; 101%
CN(C(=O)C1CC1)c1ccc(Oc2sc(C(N)=O)c3c2-c2sncc2CC3)cn1; 99%
COCC(=O)Nc1ccc(Oc2sc(C(N)=O)c3c2-c2sncc2CC3)c(C)n1; 100%
CC(C)S(=O)(=O)c1ccc(Oc2sc(C(N)=O)c3c2-c2sncc2CC3)cc1; 99%

Param item = `CCOC(=O)Nc1ccc(Oc2sc(C(N)=O)c3c2-c2sncc2CC3)c(C)n1` ; retrieve measured Percent inhibition of CDK19 activity (%).
102%

Using the record for `COCC(=O)N(C)c1ccc(Oc2sc(C(N)=O)c3c2-c2sncc2CC3)cn1` , report its Percent inhibition of CDK19 activity (%).
101%

I'd like to know its Percent inhibition of CDK19 activity (%). The molecule in question is `NC(=O)c1sc(Oc2ccc(Cl)nc2)c2c1CCc1cnsc1-2`
101%

Bench note: what Percent inhibition of CDK19 activity (%) did `CCOCCNC(=O)c1ccc(Oc2sc(C(N)=O)c3c2-c2sncc2CC3)cc1` show?
99%

Requested field: Percent inhibition of CDK19 activity (%). Item: `COCCN(C)C(=O)c1ccc(Oc2sc(C(N)=O)c3c2-c2sncc2CC3)c(C)n1`
101%

Which Percent inhibition of CDK19 activity (%) reading was recorded for the molecule `Cc1nn(C)cc1Oc1sc(C(N)=O)c2c1-c1sncc1CC2` ?
100%

Could you share which Percent inhibition of CDK19 activity (%) value was measured for `COCCN(C)C(=O)c1ccc(Oc2sc(C(N)=O)c3c2-c2sncc2CC3)cn1` ?
95%

Report Percent inhibition of CDK19 activity (%) for `NC(=O)c1sc(Oc2ccc(NC(=O)C3CC3)nc2)c2c1CCc1cnsc1-2` please.
99%

---

Molecular target: CDC2L6/CycC (CDK19) (Homo sapiens, UniProt Q9BWU1)
Construct: purchased Carna Biosciences Inc
Assay: CDK19 inhibitory activity (Kinase Tracer-236 / Eu-anti-GST fluorescence assay)
Format: binding
Set-up: concentration or dose not given beside the values
Details: test compound concentration given as '1 1.1.1\4' [sic]
Property Label: Percent inhibition of CDK19 activity (%)
Form entry: value (%) — number only.

Here is how some compounds turned out for Percent inhibition of CDK19 activity (%).
NC(=O)c1sc(Oc2ccc(Br)nc2)c2c1CCc1cnsc1-2; 99
NC(=O)c1sc(Oc2cncc(Br)c2)c2c1CCc1cnsc1-2; 95
Cc1c(Oc2sc(C(N)=O)c3c2-c2sncc2CC3)ccc[n+]1[O-]; 98

Endpoint output: Percent inhibition of CDK19 activity (%) of `CN(C)C(=O)c1ccc(Oc2sc(C(N)=O)c3c2-c2sncc2CC3)cc1` . Value?
98

// returns reported Percent inhibition of CDK19 activity (%) for input `CCCS(=O)(=O)c1ccc(Oc2sc(C(N)=O)c3c2-c2sncc2CC3)cc1`
100
